Target: human recombinant H-PGDS (Homo sapiens, UniProt O60760)
Sequence (O60760 whole entry): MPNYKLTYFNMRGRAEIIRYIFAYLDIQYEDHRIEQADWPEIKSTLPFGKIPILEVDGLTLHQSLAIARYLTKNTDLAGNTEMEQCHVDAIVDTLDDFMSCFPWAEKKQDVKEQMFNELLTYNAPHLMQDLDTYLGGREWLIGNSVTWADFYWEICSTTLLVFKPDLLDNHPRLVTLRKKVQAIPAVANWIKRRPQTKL
Test: Fluorescence Intensity h-PGDS TBA Enzyme Assay
Type: biochemical
Details: 1:175,000 human recombinant H-PGDS, highest inhibitor concentration typically 1 μM
Hi there, I'd appreciate the recorded pIC50 for every entry that follows.
When answering, recall that pIC50 equals minus log10 of the concentration in mol/L, and write that number alone.

Test item COc1cccc(-c2ccc(C(=O)NCCNc3ccccc3)cn2)c1 ; human recombinant H-PGDS (Homo sapiens, UniProt O60760); reported pIC50 was 6.69

Form field pIC50 for item O=C(NCc1nnc(-c2cccnc2)[nH]1)c1ccc(-c2ccccc2)nc1 on human recombinant H-PGDS (Homo sapiens, UniProt O60760): 8.28

human recombinant H-PGDS (Homo sapiens, UniProt O60760) assay, compound O=C(NCCN1CCCC1=O)c1ccc(-c2cccc(F)c2)nc1 , recorded pIC50 = 7.76

O=C(NCC1CCCN(c2ncccn2)C1)c1ccc(-c2cccc(F)c2)nc1 (stereo not shown) on human recombinant H-PGDS (Homo sapiens, UniProt O60760) gives pIC50 = 7.76

Let me check: Cc1cccc(-c2ccc(C(=O)NCc3ccccc3C)cn2)c1 , system human recombinant H-PGDS (Homo sapiens, UniProt O60760), measured pIC50 is 7.91

Lab note: compound O=C(NCCN1CCNC1=O)c1ccc(-c2ccccc2)nc1 tested on human recombinant H-PGDS (Homo sapiens, UniProt O60760); recorded pIC50 was 7.59

Observed pIC50, human recombinant H-PGDS (Homo sapiens, UniProt O60760), COCCN1CC(CNC(=O)c2ccc(-c3cccc(F)c3)nc2)CC1=O (stereo not shown) : 7.45

The observed pIC50 for COCc1cc(CNC(=O)c2ccc(-c3cccc(F)c3)nc2)n[nH]1 when tested with human recombinant H-PGDS (Homo sapiens, UniProt O60760) stands at 7.56

Tested on human recombinant H-PGDS (Homo sapiens, UniProt O60760): Cc1cc(C)n(CCCNC(=O)c2ccc(-c3cccc(F)c3)nc2)n1 . Observed pIC50: 7.57

Fill in: human recombinant H-PGDS (Homo sapiens, UniProt O60760) pIC50 for COc1cccc(-c2ccc(C(=O)NCc3ccc(C(F)(F)F)cc3)cn2)c1 = 6.27

Reported human recombinant H-PGDS (Homo sapiens, UniProt O60760) pIC50 for item COc1ccc(C(N)CC(=O)NC(=O)c2ccc(-c3cccc(C)c3)nc2)cc1OC (stereo not shown) was 7.63

human recombinant H-PGDS (Homo sapiens, UniProt O60760) assay, compound CC(C)NC(=O)c1ccc(-c2cccc(F)c2)nc1 , recorded pIC50 = 7.69

pIC50 of COCCCn1cnnc1CNC(=O)c1ccc(-c2cccc(F)c2)nc1 , assay on human recombinant H-PGDS (Homo sapiens, UniProt O60760), is 6.95

Record O=C(NC1CCOCC1)c1ccc(-c2ccccc2)nc1 has human recombinant H-PGDS (Homo sapiens, UniProt O60760) pIC50 equal to 8.12

Reported pIC50 (human recombinant H-PGDS (Homo sapiens, UniProt O60760)) for entry Cc1nccn1CCNC(=O)c1ccc(-c2cccc(F)c2)nc1 is 7.22

Entry O=C(NCCCn1ncc2ccccc21)c1cnc(-c2cccc(F)c2)c(Cl)c1 : pIC50 on human recombinant H-PGDS (Homo sapiens, UniProt O60760) = 7.07

Considering CN1CCN(CCCNC(=O)c2ccc(-c3cccc(F)c3)nc2)CC1 , its pIC50 with human recombinant H-PGDS (Homo sapiens, UniProt O60760) was recorded as 6.97

Form field pIC50 for item COc1cccc(-c2ccc(C(=O)NCC(C)(C)OC)cn2)c1 on human recombinant H-PGDS (Homo sapiens, UniProt O60760): 6.02

Let me check: Cc1cccc(-c2ccc(C(=O)NC(=O)CC(N)C3CC3)cn2)c1 (stereo not shown) , system human recombinant H-PGDS (Homo sapiens, UniProt O60760), measured pIC50 is 7.13

COC(=O)CNC(=O)[C@H](C)NC(=O)c1ccc(-c2cccc(C)c2)nc1 tested on human recombinant H-PGDS (Homo sapiens, UniProt O60760) gave pIC50: 6.90

Observed pIC50 on human recombinant H-PGDS (Homo sapiens, UniProt O60760), entry N#CC(NC(=O)c1ccc(-c2cccc(F)c2)nc1)c1ccccc1 (stereo not shown) , equals 7.59

Lab entry: human recombinant H-PGDS (Homo sapiens, UniProt O60760) assay, compound O=C(NCCN1CCCC(O)C1)c1ccc(-c2cccc(F)c2)nc1 (stereo not shown) , pIC50 = 7.66

Note to self: pIC50 of Cc1cccc(-c2ccc(C(=O)NCCc3ccncc3)cn2)c1 with human recombinant H-PGDS (Homo sapiens, UniProt O60760) was 7.97

Readout pIC50 for COc1cccc(-c2ccc(C(=O)NCCN3CCN(Cc4ccccc4)CC3)cn2)c1 , test system human recombinant H-PGDS (Homo sapiens, UniProt O60760), was 6.42

Considering O=C(NCCN1CCCC1)c1ccc(-c2ccccc2)nc1 , its pIC50 with human recombinant H-PGDS (Homo sapiens, UniProt O60760) was recorded as 6.70

The value of pIC50 recorded for COC(=O)[C@H](C)NC(=O)c1ccc(-c2ccccc2)nc1 when tested on human recombinant H-PGDS (Homo sapiens, UniProt O60760) reads 7.33

// compound Cc1ccccc1CNC(=O)c1ccc(-c2cccc(F)c2)nc1 , assay human recombinant H-PGDS (Homo sapiens, UniProt O60760), pIC50 value: 8.52

Short answer on human recombinant H-PGDS (Homo sapiens, UniProt O60760) for Cc1cccc(-c2ccc(C(=O)NCc3nc(CS(C)(=O)=O)no3)cn2)c1 , pIC50: 6.45

Entry Cc1cnc(CN2CC(CNC(=O)c3ccc(-c4cccc(F)c4)nc3)OCC2=O)cn1 (stereo not shown) , tested on human recombinant H-PGDS (Homo sapiens, UniProt O60760), has a reported pIC50 of 7.21

pIC50 of CC(C)CNC(=O)c1ccc(-c2ccc(F)cc2)nc1 , assay on human recombinant H-PGDS (Homo sapiens, UniProt O60760), is 6.19

pIC50 value, target or system human recombinant H-PGDS (Homo sapiens, UniProt O60760), for O=C(NCCN1CCOCC1)c1ccc(-c2cccc(F)c2)nc1 : 7.36

Here O=C(NCc1ccc(Cl)cc1)c1ccc(-c2cccc(F)c2)nc1 was tested on human recombinant H-PGDS (Homo sapiens, UniProt O60760), and its pIC50 came to 7.40

# lookup: COc1cccc(-c2ccc(C(=O)NCC3CCCCO3)cn2)c1 (stereo not shown) on human recombinant H-PGDS (Homo sapiens, UniProt O60760), pIC50 = 6.28

Summary: CCOC(=O)CC(NC(=O)c1ccc(-c2ccccc2)nc1)c1ccc(OC)cc1 (stereo not shown) , human recombinant H-PGDS (Homo sapiens, UniProt O60760), pIC50 = 7.92

Short answer on human recombinant H-PGDS (Homo sapiens, UniProt O60760) for CCC1CCN(CCNC(=O)c2ccc(-c3ccc(F)cc3)nc2)CC1 , pIC50: 6.16

// compound O=C(NC1CCN(Cc2ccc(Cl)c(Cl)c2)C1=O)c1ccc(-c2cccc(F)c2)nc1 (stereo not shown) , assay human recombinant H-PGDS (Homo sapiens, UniProt O60760), pIC50 value: 7.39

Readout pIC50 for Cc1cccc(NC(=O)c2ccc(-c3ccccc3)nc2)c1 [Example 392, N-(3-Methylphenyl)-6-phenylnicotinamide] , test system human recombinant H-PGDS (Homo sapiens, UniProt O60760), was 8.95
